Reference source for all entries: ChEMBL document CHEMBL1131103

# Organism: Bos taurus
# METHOD_NOTES: Polymerizing activity of microtubule protein against the twice cycled microtubule protein
# Type: functional
OBSERVED_PROPERTY: EC0.01 (relative to paclitaxel)
Just the number, please, no unit after it.

Query :: Entry under review: CC(=O)O[C@H]1C(=O)[C@@]2(C)[C@H]([C@H](OC(=O)c3cccc(F)c3)[C@]3(O)C[C@H](OC(=O)[C@H](O)[C@@H](NC(=O)c4ccccc4)c4ccccc4)C(C)=C1C3(C)C)[C@]1(OC(C)=O)CO[C@@H]1C[C@@H]2O . Reported EC0.01 (relative to paclitaxel)?
Result :: 0.7

###

# Species: Bos taurus
# METHOD_NOTES: Polymerizing activity of microtubule protein against the twice cycled microtubule protein
# Assay type: functional
OBSERVED_PROPERTY: EC0.01 (relative to paclitaxel)

Below, 5 compounds whose answers are already recorded.
SMILES_REPRESENTATION | EC0.01 (relative to paclitaxel)
COc1cccc(C(=O)O[C@H]2[C@@H]3[C@]4(OC(C)=O)CO[C@@H]4C[C@H](O)[C@@]3(C)C(=O)[C@H](OC(C)=O)C3=C(C)[C@@H](OC(=O)[C@H](O)[C@@H](NC(=O)c4ccccc4)c4ccccc4)C[C@]2(O)C3(C)C)c1OC | > 270
CC(=O)O[C@H]1C(=O)[C@@]2(C)[C@H]([C@H](OC(=O)c3cccc(Br)c3)[C@]3(O)C[C@H](OC(=O)[C@H](O)[C@@H](NC(=O)c4ccccc4)c4ccccc4)C(C)=C1C3(C)C)[C@]1(OC(C)=O)CO[C@@H]1C[C@@H]2O | 0.8
CC(=O)O[C@H]1C(=O)[C@@]2(C)[C@H]([C@H](OC(=O)c3cccc(C(F)(F)F)c3)[C@]3(O)C[C@H](OC(=O)[C@H](O)[C@@H](NC(=O)c4ccccc4)c4ccccc4)C(C)=C1C3(C)C)[C@]1(OC(C)=O)CO[C@@H]1C[C@@H]2O | 1.3
CC(=O)O[C@H]1C(=O)[C@@]2(C)[C@H]([C@H](OC(=O)c3ccc(Cl)c(Cl)c3)[C@]3(O)C[C@H](OC(=O)[C@H](O)[C@@H](NC(=O)c4ccccc4)c4ccccc4)C(C)=C1C3(C)C)[C@]1(OC(C)=O)CO[C@@H]1C[C@@H]2O | 0.76
CC(=O)O[C@H]1C(=O)[C@@]2(C)[C@H]([C@H](OC(=O)c3cc(F)c(F)cc3F)[C@]3(O)C[C@H](OC(=O)[C@H](O)[C@@H](NC(=O)c4ccccc4)c4ccccc4)C(C)=C1C3(C)C)[C@]1(OC(C)=O)CO[C@@H]1C[C@@H]2O | 1.5

Could you now look at the following compound, please?
Query :: Entry COc1ccccc1C(=O)O[C@H]1[C@@H]2[C@]3(OC(C)=O)CO[C@@H]3C[C@H](O)[C@@]2(C)C(=O)[C@H](OC(C)=O)C2=C(C)[C@@H](OC(=O)[C@H](O)[C@@H](NC(=O)c3ccccc3)c3ccccc3)C[C@]1(O)C2(C)C has what EC0.01 (relative to paclitaxel)?
Result :: 1.5

###

# Species on record: Bos taurus
# METHOD_NOTES: Polymerizing activity of tubulin in glutamate against bovine brain tubulin homogenate was measured at 0.4 M concentrations
# Type: functional
Reported IC50 values follow for various molecules

Worked examples, 4 molecules total:
SMILES_REPRESENTATION | IC50
CC(=O)O[C@H]1C(=O)[C@@]2(C)[C@H]([C@H](OC(=O)c3cccc(N=[N+]=[N-])c3)[C@]3(O)C[C@H](OC(=O)[C@H](O)[C@@H](NC(=O)c4ccccc4)c4ccccc4)C(C)=C1C3(C)C)[C@]1(OC(C)=O)CO[C@@H]1C[C@@H]2O | 0.2 relative to paclitaxel
CC(=O)O[C@H]1C(=O)[C@@]2(C)[C@H]([C@H](OC(=O)c3cccc(Br)c3)[C@]3(O)C[C@H](OC(=O)[C@H](O)[C@@H](NC(=O)c4ccccc4)c4ccccc4)C(C)=C1C3(C)C)[C@]1(OC(C)=O)CO[C@@H]1C[C@@H]2O | 0.24 relative to paclitaxel
CC(=O)O[C@H]1C(=O)[C@@]2(C)[C@H]([C@H](OC(=O)c3cccc(F)c3F)[C@]3(O)C[C@H](OC(=O)[C@H](O)[C@@H](NC(=O)c4ccccc4)c4ccccc4)C(C)=C1C3(C)C)[C@]1(OC(C)=O)CO[C@@H]1C[C@@H]2O | > 1.7 relative to paclitaxel
CC(=O)O[C@H]1C(=O)[C@@]2(C)[C@H]([C@H](OC(=O)c3ccc(O)cc3)[C@]3(O)C[C@H](OC(=O)[C@H](O)[C@@H](NC(=O)c4ccccc4)c4ccccc4)C(C)=C1C3(C)C)[C@]1(OC(C)=O)CO[C@@H]1C[C@@H]2O | > 1.7 relative to paclitaxel

Query :: Name the reported IC50 value associated with the molecule COc1cccc(C(=O)O[C@H]2[C@@H]3[C@]4(OC(C)=O)CO[C@@H]4C[C@H](O)[C@@]3(C)C(=O)[C@H](OC(C)=O)C3=C(C)[C@@H](OC(=O)[C@H](O)[C@@H](NC(=O)c4ccccc4)c4ccccc4)C[C@]2(O)C3(C)C)c1
Result :: 0.22 relative to paclitaxel

Query :: What value of IC50 has been recorded for this entry: CC(=O)O[C@H]1C(=O)[C@@]2(C)[C@H]([C@H](OC(=O)c3cccc(C#N)c3)[C@]3(O)C[C@H](OC(=O)[C@H](O)[C@@H](NC(=O)c4ccccc4)c4ccccc4)C(C)=C1C3(C)C)[C@]1(OC(C)=O)CO[C@@H]1C[C@@H]2O
Result :: 0.63 relative to paclitaxel

Query :: Could you tell me which IC50 is on file for CSc1cccc(C(=O)O[C@H]2[C@@H]3[C@]4(OC(C)=O)CO[C@@H]4C[C@H](O)[C@@]3(C)C(=O)[C@H](OC(C)=O)C3=C(C)[C@@H](OC(=O)[C@H](O)[C@@H](NC(=O)c4ccccc4)c4ccccc4)C[C@]2(O)C3(C)C)c1 ?
Result :: > 1.7 relative to paclitaxel

Query :: For the molecule CC(=O)O[C@H]1C(=O)[C@@]2(C)[C@H]([C@H](OC(=O)c3cc(Cl)cc(Cl)c3)[C@]3(O)C[C@H](OC(=O)[C@H](O)[C@@H](NC(=O)c4ccccc4)c4ccccc4)C(C)=C1C3(C)C)[C@]1(OC(C)=O)CO[C@@H]1C[C@@H]2O , what IC50 is on record?
Result :: 0.91 relative to paclitaxel

Query :: Consider the molecule CC(=O)O[C@H]1C(=O)[C@@]2(C)[C@H]([C@H](OC(=O)c3cc(F)cc(F)c3)[C@]3(O)C[C@H](OC(=O)[C@H](O)[C@@H](NC(=O)c4ccccc4)c4ccccc4)C(C)=C1C3(C)C)[C@]1(OC(C)=O)CO[C@@H]1C[C@@H]2O and give its measured IC50.
Result :: 0.29 relative to paclitaxel

Query :: So what does the record say about IC50 for CC(=O)O[C@H]1C(=O)[C@@]2(C)[C@H]([C@H](OC(=O)c3cccc([N+](=O)[O-])c3)[C@]3(O)C[C@H](OC(=O)[C@H](O)[C@@H](NC(=O)c4ccccc4)c4ccccc4)C(C)=C1C3(C)C)[C@]1(OC(C)=O)CO[C@@H]1C[C@@H]2O ?
Result :: > 1.7 relative to paclitaxel

Query :: // lookup IC50 for CC(=O)O[C@H]1C(=O)[C@@]2(C)[C@H]([C@H](OC(=O)c3cc(F)ccc3F)[C@]3(O)C[C@H](OC(=O)[C@H](O)[C@@H](NC(=O)c4ccccc4)c4ccccc4)C(C)=C1C3(C)C)[C@]1(OC(C)=O)CO[C@@H]1C[C@@H]2O
Result :: 0.29 relative to paclitaxel

Query :: Give the measured IC50 of CC(=O)O[C@H]1C(=O)[C@@]2(C)[C@H]([C@H](OC(=O)c3ccc(F)c(F)c3)[C@]3(O)C[C@H](OC(=O)[C@H](O)[C@@H](NC(=O)c4ccccc4)c4ccccc4)C(C)=C1C3(C)C)[C@]1(OC(C)=O)CO[C@@H]1C[C@@H]2O .
Result :: > 1.7 relative to paclitaxel

Query :: Can you look up the measured IC50 of CC(=O)O[C@H]1C(=O)[C@@]2(C)[C@H]([C@H](OC(=O)c3ccc(Cl)c(Cl)c3)[C@]3(O)C[C@H](OC(=O)[C@H](O)[C@@H](NC(=O)c4ccccc4)c4ccccc4)C(C)=C1C3(C)C)[C@]1(OC(C)=O)CO[C@@H]1C[C@@H]2O for me?
Result :: 0.41 relative to paclitaxel

Query :: Reported IC50 for COc1cc(C(=O)O[C@H]2[C@@H]3[C@]4(OC(C)=O)CO[C@@H]4C[C@H](O)[C@@]3(C)C(=O)[C@H](OC(C)=O)C3=C(C)[C@@H](OC(=O)[C@H](O)[C@@H](NC(=O)c4ccccc4)c4ccccc4)C[C@]2(O)C3(C)C)cc(OC)c1OC : what is it?
Result :: > 1.7 relative to paclitaxel

Query :: If you can, please state the reported IC50 value of CC(=O)O[C@H]1C(=O)[C@@]2(C)[C@H]([C@H](OC(=O)c3cccc(Cl)c3)[C@]3(O)C[C@H](OC(=O)[C@H](O)[C@@H](NC(=O)c4ccccc4)c4ccccc4)C(C)=C1C3(C)C)[C@]1(OC(C)=O)CO[C@@H]1C[C@@H]2O .
Result :: 0.3 relative to paclitaxel
